B1: library; numbered along this chain (parent)
chain: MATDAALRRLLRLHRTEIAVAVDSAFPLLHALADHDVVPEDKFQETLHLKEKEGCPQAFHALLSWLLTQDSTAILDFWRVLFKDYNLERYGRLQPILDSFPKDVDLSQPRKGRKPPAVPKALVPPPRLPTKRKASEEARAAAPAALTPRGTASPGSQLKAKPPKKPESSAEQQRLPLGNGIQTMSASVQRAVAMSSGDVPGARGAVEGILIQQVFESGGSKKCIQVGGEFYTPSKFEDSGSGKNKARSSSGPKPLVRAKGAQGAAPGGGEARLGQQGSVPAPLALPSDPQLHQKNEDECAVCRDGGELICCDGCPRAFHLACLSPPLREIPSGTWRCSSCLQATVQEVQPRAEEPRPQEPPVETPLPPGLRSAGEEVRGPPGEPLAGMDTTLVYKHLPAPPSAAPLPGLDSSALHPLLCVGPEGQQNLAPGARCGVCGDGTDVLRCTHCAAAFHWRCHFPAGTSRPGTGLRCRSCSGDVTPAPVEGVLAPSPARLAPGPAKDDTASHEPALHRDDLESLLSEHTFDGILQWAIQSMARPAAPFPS

# Variants of: B1
# Assay comment: AIRE transcriptional activation functional score (insulin promoter-GFP; nonsense median 0, synonymous median 1) (normalised score); higher = higher AIRE activity (more reporter activation)
# Conditions used: with insulin promoter-GFP reporter in HEK293
Would you mind labelling by AIRE transcriptional activation functional score? At or over 0.6 is Condition met, under is Condition not met.

Test whether the variant `V479M` records AIRE transcriptional activation functional score of 0.6 or higher.
Condition met
